assaySystem: BRD4-BD1 (Homo sapiens (Human), UniProt O60885)
experimentalDetails: BRD4 AlphaScreen assay (BD1)
measurementSetup: biotin-labeled tetra-acetylated histone H4 peptide, 3.8 nM BRD4-BD1, read-out: BRD4 BD-1 enzyme IC50
Structures can show the parent of a compound that is named as a salt.
resultType: IC50

Cc1noc(C)c1-c1cc(F)c2nnn3c2c1OCC3c1cccnc1 (stereo not shown) [Example 13, trifluoroacetate] = > 1000 nM
Cc1noc(C)c1-c1ccc2c(=O)n(C)n3c2c1OCC3c1ccccn1 (stereo not shown) [Example 6] = ≤ 200 nM
Cc1noc(C)c1-c1ccc2c(=O)n(C)n3c2c1OCC3c1ccccc1 (stereo not shown) [Example 2] = ≤ 200 nM
Cc1noc(C)c1-c1ccc2c(=O)[nH]n3c2c1OCC3c1ccccn1 (stereo not shown) [Example 5] = 200 to 1000 nM

State recorded IC50 for all listed molecules.
1. Cc1noc(C)c1-c1ccc2cnn3c2c1OCC3c1ccccn1 (stereo not shown) [Example 8, trifluoroacetate]
2. Cc1noc(C)c1-c1cc(Br)c2cnn3c2c1OCC3c1ccccc1 (stereo not shown) [Example 9]
3. Cc1noc(C)c1-c1ccc2c(=O)[nH]n3c2c1OCC3c1cccnc1 (stereo not shown) [Example 10]

## Result
1: ≤ 200 nM; 2: 200 to 1000 nM; 3: 200 to 1000 nM
